biological target: c-Src SH2; assay: SH2 binding enrichment of the phosphorylated peptide, bacterial display (enrichment ratio); higher = better substrate or ligand; peptides without Tyr show the background
Label rule, in plain words: SH2 binding enrichment of 0.5 and up is met, under 0.5 is not met.

Known results for sequences:
INSERT INTO results (polymersequence, cat) VALUES
  ('SSQTVYQRVEG [TFR2_Y23]', 'met'),
  ('DSMQSYDLDYP [UNC13B_Y243]', 'met'),
  ('HVLEEYKPKQG [SAXO2_Y37_P34L]', 'not met'),
  ('NLVSEYQQYQD [TUBB3_Y422_D417N]', 'met'),
  ('PGVDRYSLGTS [C5orf42_Y1451]', 'not met');

State whether the measured SH2 binding enrichment reaches 0.5, counting equality as reaching it, for HSGLAYTMERS [GLUD1_Y512]
not met

State whether the measured SH2 binding enrichment reaches 0.5, counting equality as reaching it, for SSPQLYLVPFL [TAF4_Y652_P651L]
met

State whether the measured SH2 binding enrichment reaches 0.5, counting equality as reaching it, for EWKQNYEESQS [MYH7_Y1460_K1459N]
met

----------
Quick list: phosphorylation enrichment per entry.
molecular target: Hck (UniProt P08631); assay: phosphorylation enrichment, bacterial display (enrichment ratio); higher = better substrate or ligand; peptides without Tyr show the background
Sequence (P08631 whole entry, looked up): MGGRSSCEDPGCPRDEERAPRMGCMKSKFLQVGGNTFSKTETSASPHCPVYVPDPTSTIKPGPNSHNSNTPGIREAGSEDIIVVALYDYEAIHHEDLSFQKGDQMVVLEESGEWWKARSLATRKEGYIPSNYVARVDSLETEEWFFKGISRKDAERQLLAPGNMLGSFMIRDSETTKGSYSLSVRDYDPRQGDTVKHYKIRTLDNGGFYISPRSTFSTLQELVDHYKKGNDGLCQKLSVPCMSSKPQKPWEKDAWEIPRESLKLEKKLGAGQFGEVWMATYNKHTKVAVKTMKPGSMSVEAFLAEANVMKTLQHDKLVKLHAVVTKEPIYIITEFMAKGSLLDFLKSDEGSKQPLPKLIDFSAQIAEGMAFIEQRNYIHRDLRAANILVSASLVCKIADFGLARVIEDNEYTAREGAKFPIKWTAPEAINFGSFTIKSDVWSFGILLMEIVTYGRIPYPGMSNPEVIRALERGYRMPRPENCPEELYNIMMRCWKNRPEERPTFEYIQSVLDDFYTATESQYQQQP
Just the number, please.

INSERT INTO measurements (polymersequence, measuredon, endpointresult) VALUES
  ('LRFDSYSSFCN [SLC20A2_Y433_YF]', 'Hck (UniProt P08631)', 0.687),
  ('ILDEAYVMASM [EGFR_Y764_V769M]', 'Hck (UniProt P08631)', 0.528),
  ('MARDIYQASFF [LTK_Y672_R673Q_YF]', 'Hck (UniProt P08631)', 7.31);

Tell me the measured phosphorylation enrichment of PDMHSYMVRFN [GRIN2D_Y732_YF] , please.
0.641

Tell me the measured phosphorylation enrichment of FGEFRYRSVIK [CFTR_Y517_D513G_YF] , please.
0.565

Tell me the measured phosphorylation enrichment of LYYYSYLLKNH [PTEN_Y180_V175L] , please.
1.49

Tell me the measured phosphorylation enrichment of QKFMAYLSQGW [HLCS_Y236_G241W] , please.
0.501

Tell me the measured phosphorylation enrichment of LTPVKYLLSAT [GSDMC_Y26] , please.
0.429

Tell me the measured phosphorylation enrichment of RRDRDYTNLPS [CSF1R_Y923_E920D] , please.
0.673

Tell me the measured phosphorylation enrichment of LEFGDCHPLKP [VPS35L_Y32_Y32C] , please.
0.777

Tell me the measured phosphorylation enrichment of PLQDVYKIGGI [EEF1A2_Y254] , please.
1.04

Tell me the measured phosphorylation enrichment of DLLMQHPKAQG [FAM83C_Y600_Y600H] , please.
0.523

Tell me the measured phosphorylation enrichment of SYCYRYRCAPR [SUMF1_Y344_A348P] , please.
0.43

----------
Quick list: SH2 binding enrichment per entry.
target: c-Src SH2; assay: SH2 binding enrichment of the phosphorylated peptide, bacterial display (enrichment ratio); higher = better substrate or ligand; peptides without Tyr show the background;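 also: peptide library displayed on the E. coli surface as eCPX fusions, selected cells deep-sequenced, score is each peptide's frequency after selection divided by its frequency in the input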

# count of solved cases: 3
INSERT INTO assay_data (polymersequence, endpointresult) VALUES
  ('REAMEYLESKQ [BTK_Y511_C506R]', 0.491),
  ('MDFRSYPREFG [RBM10_Y44_YF]', 0.578),
  ('CHSDDYVHISI [TSC1_Y406_L411I]', 0.575);

Tell me the measured SH2 binding enrichment of GLETSYIEDNC [PAH_Y24_Q20L] , please.
0.539

Tell me the measured SH2 binding enrichment of SSNPEYLSASD [INSR_Y999] , please.
0.557

Tell me the measured SH2 binding enrichment of YIPSNYVAEDR [FRK_Y104] , please.
0.761

----------
target: Hck (UniProt P08631); experiment: phosphorylation enrichment, bacterial display (enrichment ratio); higher = better substrate or ligand; peptides without Tyr show the background
experimentalReadout: phosphorylation enrichment
Just the number, please.

Tell me the measured phosphorylation enrichment of MIRSAYALRGL [CPS1_Y590_G593R] , please.
0.491

Tell me the measured phosphorylation enrichment of SDQRRYSLIDP [CLIP2_Y972_R977P] , please.
0.466

Tell me the measured phosphorylation enrichment of ELTAKYLNYYR [P3H4_Y181_Q186R] , please.
0.419

Tell me the measured phosphorylation enrichment of YEEDSYSHIMA [FDPS_Y388] , please.
0.976

Tell me the measured phosphorylation enrichment of KLKPIYFHTQG [AR_Y916_V912L] , please.
0.364

Tell me the measured phosphorylation enrichment of CGQDPCIRELG [UROS_Y19_Y19C] , please.
0.423

Tell me the measured phosphorylation enrichment of WHHTFYNELRV [ACTA1_Y93] , please.
0.997

Tell me the measured phosphorylation enrichment of VRSNHYDPEED [TJP1_Y1346] , please.
0.579

Tell me the measured phosphorylation enrichment of HGVSSYDTVIS [LDLR_Y465] , please.
0.846

Tell me the measured phosphorylation enrichment of PTTMTYFPHFD [HBA1_Y43_K41M] , please.
0.951

Tell me the measured phosphorylation enrichment of FPRAWCRRSIA [KIAA1109_Y4272_Y4272C] , please.
0.466

Tell me the measured phosphorylation enrichment of LFSDHYSPSGR [TMPRSS12_Y23_YF] , please.
0.455

Tell me the measured phosphorylation enrichment of VTRAKYFIRDE [GNAS_Y339] , please.
0.409

Tell me the measured phosphorylation enrichment of AELVQYYMEHH [PTPN11_Y80] , please.
0.974

Tell me the measured phosphorylation enrichment of PDKRIYQFTAS [SKAP2_Y197_A202S] , please.
0.698

Tell me the measured phosphorylation enrichment of NHRNQYQALKP [CLSPN_Y887] , please.
0.504

Tell me the measured phosphorylation enrichment of HHLSTYTKMLF [CHST8_Y251_R247H] , please.
0.814

Tell me the measured phosphorylation enrichment of PAVGIYNDNIN [CDCP1_Y707] , please.
1.17

Tell me the measured phosphorylation enrichment of NMRSTYAKLAA [SEC22B_Y193_H190R] , please.
0.456

----------
target: Fyn (UniProt P06241); assay: phosphorylation enrichment, bacterial display (enrichment ratio); higher = better substrate or ligand; peptides without Tyr show the background
Sequence (P06241 whole entry, looked up): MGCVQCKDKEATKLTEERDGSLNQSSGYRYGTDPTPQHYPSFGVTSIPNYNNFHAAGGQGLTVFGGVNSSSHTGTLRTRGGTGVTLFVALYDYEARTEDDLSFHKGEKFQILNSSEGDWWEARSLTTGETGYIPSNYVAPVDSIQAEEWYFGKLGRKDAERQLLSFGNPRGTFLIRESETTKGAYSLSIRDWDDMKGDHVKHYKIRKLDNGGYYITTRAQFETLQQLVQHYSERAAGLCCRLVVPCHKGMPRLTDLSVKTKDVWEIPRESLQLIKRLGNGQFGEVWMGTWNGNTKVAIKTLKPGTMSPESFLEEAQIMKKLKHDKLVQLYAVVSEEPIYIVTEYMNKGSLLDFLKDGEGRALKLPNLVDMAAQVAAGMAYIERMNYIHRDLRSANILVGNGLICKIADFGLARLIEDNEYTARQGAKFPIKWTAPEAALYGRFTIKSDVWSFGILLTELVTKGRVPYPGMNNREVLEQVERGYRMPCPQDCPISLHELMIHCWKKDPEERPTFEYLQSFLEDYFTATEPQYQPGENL
experimentalReadout: phosphorylation enrichment
Just the number, please.

# count of solved cases: 3
INSERT INTO results (polymersequence, endpointresult) VALUES
  ('SSAETYSRMRL [NBEAL2_Y1835]', 0.431),
  ('KVITDYFVDMK [MPP4_Y566_YF]', 0.455),
  ('LNPVVYTLRNA [OR4C12_Y285]', 0.635);

Form: Entry = IQTDGYRAPEA [UHMK1_Y197] | System = Fyn (UniProt P06241) | phosphorylation enrichment = ____
0.428

Form: Entry = LLKKVYLMLDN [STAT1_Y203_M202V] | System = Fyn (UniProt P06241) | phosphorylation enrichment = ____
0.627

----------
target: EPHB2 (UniProt P29323); assay: phosphorylation enrichment, bacterial display (enrichment ratio); higher = better substrate or ligand; peptides without Tyr show the background
Sequence (P29323 whole entry, looked up): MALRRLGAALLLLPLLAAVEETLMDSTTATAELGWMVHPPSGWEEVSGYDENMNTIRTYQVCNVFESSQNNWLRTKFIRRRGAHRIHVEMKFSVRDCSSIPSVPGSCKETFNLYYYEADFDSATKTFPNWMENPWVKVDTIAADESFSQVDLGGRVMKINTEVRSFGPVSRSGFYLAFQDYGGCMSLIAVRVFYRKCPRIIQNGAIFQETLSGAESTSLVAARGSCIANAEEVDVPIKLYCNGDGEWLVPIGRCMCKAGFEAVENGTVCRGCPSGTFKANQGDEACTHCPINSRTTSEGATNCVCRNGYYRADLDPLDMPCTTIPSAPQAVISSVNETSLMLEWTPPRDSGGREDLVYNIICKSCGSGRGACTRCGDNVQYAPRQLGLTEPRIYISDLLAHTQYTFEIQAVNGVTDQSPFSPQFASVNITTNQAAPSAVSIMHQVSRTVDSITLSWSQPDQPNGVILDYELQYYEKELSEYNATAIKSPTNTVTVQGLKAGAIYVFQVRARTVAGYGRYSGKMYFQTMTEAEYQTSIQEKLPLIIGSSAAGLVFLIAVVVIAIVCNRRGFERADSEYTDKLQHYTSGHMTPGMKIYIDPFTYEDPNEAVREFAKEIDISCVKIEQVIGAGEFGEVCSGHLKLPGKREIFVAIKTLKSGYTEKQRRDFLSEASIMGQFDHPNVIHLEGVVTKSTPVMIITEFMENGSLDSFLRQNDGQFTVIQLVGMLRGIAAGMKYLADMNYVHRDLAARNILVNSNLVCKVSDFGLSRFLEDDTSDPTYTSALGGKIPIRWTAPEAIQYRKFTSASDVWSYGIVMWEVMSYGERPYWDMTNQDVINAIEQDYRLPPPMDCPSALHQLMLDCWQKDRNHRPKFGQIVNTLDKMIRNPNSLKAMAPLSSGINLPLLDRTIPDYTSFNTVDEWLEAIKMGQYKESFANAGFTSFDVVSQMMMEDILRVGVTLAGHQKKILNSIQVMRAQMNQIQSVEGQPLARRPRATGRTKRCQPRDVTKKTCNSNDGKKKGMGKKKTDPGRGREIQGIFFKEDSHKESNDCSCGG
Label rule, in plain words: phosphorylation enrichment of 0.6 and up is TRUE, under 0.6 is FALSE.

Known results for sequences:
INSERT INTO assay_data (polymersequence, cat) VALUES
  ('IGMIIYFARKA [VCAM1_Y718]', 'TRUE'),
  ('STSFDYCRVPM [BST2_Y8_YF]', 'TRUE'),
  ('LNPFIYSLRNC [OR1A2_Y288_W293C]', 'TRUE'),
  ('YGSSSYGGAGG [RPA2_Y14]', 'FALSE'),
  ('FFCRWYRNRKS [EREG_Y144_YF]', 'FALSE'),
  ('AQESNYRLLRR [SLC20A2_Y377]', 'FALSE');

Now look at this one.
State whether the measured phosphorylation enrichment reaches 0.6, counting equality as reaching it, for RREWYYEVIIV [BACE1_Y260]
TRUE

----------
system: Fer (mouse); experiment: phosphorylation enrichment, bacterial display (enrichment ratio); higher = better substrate or ligand; peptides without Tyr show the background
Quick list: phosphorylation enrichment per entry.
Just the number, please.

INSERT INTO measurements (polymersequence, experimentalreadout, endpointresult) VALUES
  ('LAIERYVVVSK [RHO_Y136_C140S]', 'phosphorylation enrichment', 0.459),
  ('SEELHYYVQNH [UQCRC2_Y207_F208Y]', 'phosphorylation enrichment', 0.954),
  ('RQQEVYLLYKQ [RARRES1_Y159_D158V]', 'phosphorylation enrichment', 0.611),
  ('VFSATYHPDHW [EFCAB12_Y544_P541S_YF]', 'phosphorylation enrichment', 0.55),
  ('KAPPTYDTVLQ [CYP3A4_Y347]', 'phosphorylation enrichment', 2.09),
  ('LLANAYIFVVQ [L1CAM_Y418_YF]', 'phosphorylation enrichment', 0.793);

Kindly consider the entry below.
Tell me the measured phosphorylation enrichment of ANAYIYDVQLP [L1CAM_Y420_V421D] , please.
1.72
